Sourced from patent US20120220600A1

Below are molecules with their pIC50 as measured on UniProt:Q12809.
Sequence (Q12809 whole entry): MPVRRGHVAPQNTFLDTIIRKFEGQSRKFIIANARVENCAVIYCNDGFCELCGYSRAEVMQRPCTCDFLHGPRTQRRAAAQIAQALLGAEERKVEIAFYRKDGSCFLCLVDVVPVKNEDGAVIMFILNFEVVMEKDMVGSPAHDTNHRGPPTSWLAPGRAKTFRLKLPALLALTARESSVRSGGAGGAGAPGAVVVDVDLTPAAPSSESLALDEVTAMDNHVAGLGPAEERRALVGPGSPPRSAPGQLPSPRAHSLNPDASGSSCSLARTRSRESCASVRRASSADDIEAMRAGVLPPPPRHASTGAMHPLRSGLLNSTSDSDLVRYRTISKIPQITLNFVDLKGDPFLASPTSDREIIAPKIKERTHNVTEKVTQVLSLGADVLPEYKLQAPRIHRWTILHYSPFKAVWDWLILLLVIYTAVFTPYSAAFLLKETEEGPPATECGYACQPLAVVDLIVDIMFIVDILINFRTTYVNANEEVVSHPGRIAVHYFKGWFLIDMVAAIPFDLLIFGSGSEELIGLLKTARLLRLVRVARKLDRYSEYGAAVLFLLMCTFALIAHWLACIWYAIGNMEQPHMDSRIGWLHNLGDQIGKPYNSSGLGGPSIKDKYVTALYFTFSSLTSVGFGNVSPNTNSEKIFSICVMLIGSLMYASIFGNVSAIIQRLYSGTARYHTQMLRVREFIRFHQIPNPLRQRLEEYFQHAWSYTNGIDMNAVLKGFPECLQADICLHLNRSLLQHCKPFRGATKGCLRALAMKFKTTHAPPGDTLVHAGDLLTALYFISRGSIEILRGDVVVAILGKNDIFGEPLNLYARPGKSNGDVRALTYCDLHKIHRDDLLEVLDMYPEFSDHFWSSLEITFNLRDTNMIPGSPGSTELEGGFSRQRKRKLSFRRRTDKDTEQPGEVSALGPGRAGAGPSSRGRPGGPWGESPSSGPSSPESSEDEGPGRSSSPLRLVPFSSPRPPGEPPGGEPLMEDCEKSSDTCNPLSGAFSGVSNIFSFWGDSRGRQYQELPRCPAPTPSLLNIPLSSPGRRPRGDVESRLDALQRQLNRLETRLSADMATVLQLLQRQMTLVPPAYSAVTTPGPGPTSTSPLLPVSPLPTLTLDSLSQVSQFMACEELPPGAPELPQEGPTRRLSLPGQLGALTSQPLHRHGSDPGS
Note on units: pIC50 is unitless, being -log10 of a concentration expressed in mol/L.

Q) Give the measured pIC50 of `CC[N+]1([O-])CCN(c2ccc(Nc3cc(N(C)C(=O)Nc4c(Cl)c(OC)cc(OC)c4Cl)ncn3)cc2)CC1` .
A) 4.99

Kindly consider the entry below.
Q) Give the measured pIC50 of `CCN1CCN(c2ccc(Nc3cc(N(C)C(=O)Nc4c(Cl)c(OC)cc(OC)c4Cl)ncn3)cc2)CC1` .
A) 5.52

###

Measured half-life at 1 μM accompanies every entry in the list below.
assayMethodText: In vitro metabolic stability in mouse liver microsomes
Format: in vitro ADME
Write the answer as a number in min, unit excluded.

Q) Give the measured half-life at 1 μM of CC[N+]1([O-])CCN(c2ccc(Nc3cc(N(C)C(=O)Nc4c(Cl)c(OC)cc(OC)c4Cl)ncn3)cc2)CC1 [Compound 1] .
A) 55.2

Kindly consider the entry below.
Q) Give the measured half-life at 1 μM of CCN1CCN(c2ccc(Nc3cc(N(C)C(=O)Nc4c(Cl)c(OC)cc(OC)c4Cl)ncn3)cc2)CC1 [Compound 2] .
A) 10.3

###

assayMethodText: In vitro metabolic stability in dog liver microsomes
Type: in vitro ADME
cond: dog, liver microsomes, read-out: CLint Rank
readoutKind: microsomal CLint at 1 μM

Q) Give the measured microsomal CLint at 1 μM of CCN1CCN(c2ccc(Nc3cc(N(C)C(=O)Nc4c(Cl)c(OC)cc(OC)c4Cl)ncn3)cc2)CC1 [Compound 2] .
A) > 150 µL/min/mg

###

assayMethodText: In vitro metabolic stability in mouse liver microsomes
Format: in vitro ADME
cond: mouse, liver microsomes, read-out: CLint Rank
readoutKind: microsomal CLint at 1 μM

Q) Give the measured microsomal CLint at 1 μM of CCN1CCN(c2ccc(Nc3cc(N(C)C(=O)Nc4c(Cl)c(OC)cc(OC)c4Cl)ncn3)cc2)CC1 [Compound 2] .
A) 50 to 150 µL/min/mg

###

assayMethodText: Permeability across Caco-2 cell monolayers
Assay type: in vitro ADME, human
cond: human; Caco-2, 10 μM, pH 7.4, 120 min; read-out: Papp B-A/A-B
Method: The permeability of Compounds 1 and 2 across the intestinal barrier and the involvement of drug efflux transporters such as P-glycoprotein (P-gp, MDR-1) were assessed in vitro using the Caco-2 cell line. […] Caco-2 cells were seeded on PET (polyethylene terephthalate) filters in a 96 well format and cultured for 18-25 days to develop monolayers. […]
readoutKind: efflux ratio at 120 min, 10 μM

Q) Give the measured efflux ratio at 120 min, 10 μM of `CCN1CCN(c2ccc(Nc3cc(N(C)C(=O)Nc4c(Cl)c(OC)cc(OC)c4Cl)ncn3)cc2)CC1` .
A) 0.94

Kindly consider the entry below.
Q) Give the measured efflux ratio at 120 min, 10 μM of `CC[N+]1([O-])CCN(c2ccc(Nc3cc(N(C)C(=O)Nc4c(Cl)c(OC)cc(OC)c4Cl)ncn3)cc2)CC1` .
A) 20.2

###

assayMethodText: In vitro metabolic stability in rat liver microsomes
Assay type: in vitro ADME
readoutKind: half-life at 1 μM (min)
Write the answer as a number in min, unit excluded.

Q) Give the measured half-life at 1 μM of `CC[N+]1([O-])CCN(c2ccc(Nc3cc(N(C)C(=O)Nc4c(Cl)c(OC)cc(OC)c4Cl)ncn3)cc2)CC1` .
A) 46.8

Kindly consider the entry below.
Q) Give the measured half-life at 1 μM of `CCN1CCN(c2ccc(Nc3cc(N(C)C(=O)Nc4c(Cl)c(OC)cc(OC)c4Cl)ncn3)cc2)CC1` .
A) 15.4

###

Measured solubility accompanies every entry in the list below.
assayMethodText: Solubility in buffer (pH 1)
Assay type: physicochemical
cond: pH 1, aqueous buffer
Write the answer as a number in µM, unit excluded.

Q) Give the measured solubility of `CC[N+]1([O-])CCN(c2ccc(Nc3cc(N(C)C(=O)Nc4c(Cl)c(OC)cc(OC)c4Cl)ncn3)cc2)CC1` .
A) 700

Kindly consider the entry below.
Q) Give the measured solubility of `CCN1CCN(c2ccc(Nc3cc(N(C)C(=O)Nc4c(Cl)c(OC)cc(OC)c4Cl)ncn3)cc2)CC1` .
A) 2000

###

assayMethodText: In vitro metabolic stability in dog liver microsomes
Assay type: in vitro ADME
cond: dog, liver microsomes, read-out: CLint
readoutKind: microsomal CLint at 1 μM (µL/min/mg)
Write the answer as a number in µL/min/mg, unit excluded.

Q) Give the measured microsomal CLint at 1 μM of `CC[N+]1([O-])CCN(c2ccc(Nc3cc(N(C)C(=O)Nc4c(Cl)c(OC)cc(OC)c4Cl)ncn3)cc2)CC1` .
A) 46.1

Kindly consider the entry below.
Q) Give the measured microsomal CLint at 1 μM of `CCN1CCN(c2ccc(Nc3cc(N(C)C(=O)Nc4c(Cl)c(OC)cc(OC)c4Cl)ncn3)cc2)CC1` .
A) 395
